Reference source for all entries: patent US20230141034A1

# measurement-target: h-P2X2 (Homo sapiens)
# Sequence (Q9UBL9 1-471): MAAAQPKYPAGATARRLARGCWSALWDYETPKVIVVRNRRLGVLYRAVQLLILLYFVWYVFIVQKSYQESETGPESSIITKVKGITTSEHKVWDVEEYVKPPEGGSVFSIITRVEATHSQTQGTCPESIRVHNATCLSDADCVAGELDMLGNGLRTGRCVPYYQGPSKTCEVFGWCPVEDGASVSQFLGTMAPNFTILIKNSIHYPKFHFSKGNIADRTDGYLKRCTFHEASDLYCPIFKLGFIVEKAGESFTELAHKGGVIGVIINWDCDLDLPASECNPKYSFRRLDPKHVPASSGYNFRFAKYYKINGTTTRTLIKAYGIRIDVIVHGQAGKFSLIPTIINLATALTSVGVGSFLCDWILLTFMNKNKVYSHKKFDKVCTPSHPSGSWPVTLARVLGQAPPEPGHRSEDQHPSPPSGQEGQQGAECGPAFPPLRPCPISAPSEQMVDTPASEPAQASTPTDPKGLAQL
measurement-label: pIC50
// returns pIC50 (minus log10 of molar concentration), number only

Guide cases for pIC50, answers given:
{"molecule": "Nc1c(S(=O)(=O)O)cc(Nc2ccc(Nc3nc(Cl)nc(Nc4cccc(S(=O)(=O)O)c4)n3)c(S(=O)(=O)O)c2)c2c1C(=O)c1ccccc1C2=O [Reactive Blue 2, reference compound]", "measurement-target": "h-P2X2 (Homo sapiens)", "pIC50": 6.05}
{"molecule": "COc1ccc(NC(=S)NC(=O)C23CC4CC(CC(C4)C2)C3)cc1", "measurement-target": "h-P2X2 (Homo sapiens)", "pIC50": 5.28}
{"molecule": "Cc1ccc(C(=O)Nc2ccc(S(=O)(=O)O)c3cc(S(=O)(=O)O)cc(S(=O)(=O)O)c23)cc1NC(=O)c1cccc(NC(=O)Nc2cccc(C(=O)Nc3cc(C(=O)Nc4ccc(S(=O)(=O)O)c5cc(S(=O)(=O)O)cc(S(=O)(=O)O)c45)ccc3C)c2)c1 [Suramin, reference compound]", "measurement-target": "h-P2X2 (Homo sapiens)", "pIC50": 4.87}

Now for the molecule whose pIC50 we want.
Retrieve pIC50 measured for `O=C(NC(=S)Nc1cc([N+](=O)[O-])ccc1Cl)C12CC3CC(CC(C3)C1)C2` and print it. 5.34
